target: c-kit kinase (Homo sapiens, UniProt P10721); construct: The c-kit (or kinase domain thereof) is an active kinase in AlphaScreen; poly-Histidine tag (in-house protein only) (cleaved yes); host or cells: E. coli BL21(DE3)RIL, co-expressed with PTP1B; assay: c-Kit biochemical assay, AlphaScreen, 10 μM ATP; conditions: c-kit biochemical inhibitory activity; read-out: Biochemical activity (IC50 μM) Kit
Sequence (P10721 26-976): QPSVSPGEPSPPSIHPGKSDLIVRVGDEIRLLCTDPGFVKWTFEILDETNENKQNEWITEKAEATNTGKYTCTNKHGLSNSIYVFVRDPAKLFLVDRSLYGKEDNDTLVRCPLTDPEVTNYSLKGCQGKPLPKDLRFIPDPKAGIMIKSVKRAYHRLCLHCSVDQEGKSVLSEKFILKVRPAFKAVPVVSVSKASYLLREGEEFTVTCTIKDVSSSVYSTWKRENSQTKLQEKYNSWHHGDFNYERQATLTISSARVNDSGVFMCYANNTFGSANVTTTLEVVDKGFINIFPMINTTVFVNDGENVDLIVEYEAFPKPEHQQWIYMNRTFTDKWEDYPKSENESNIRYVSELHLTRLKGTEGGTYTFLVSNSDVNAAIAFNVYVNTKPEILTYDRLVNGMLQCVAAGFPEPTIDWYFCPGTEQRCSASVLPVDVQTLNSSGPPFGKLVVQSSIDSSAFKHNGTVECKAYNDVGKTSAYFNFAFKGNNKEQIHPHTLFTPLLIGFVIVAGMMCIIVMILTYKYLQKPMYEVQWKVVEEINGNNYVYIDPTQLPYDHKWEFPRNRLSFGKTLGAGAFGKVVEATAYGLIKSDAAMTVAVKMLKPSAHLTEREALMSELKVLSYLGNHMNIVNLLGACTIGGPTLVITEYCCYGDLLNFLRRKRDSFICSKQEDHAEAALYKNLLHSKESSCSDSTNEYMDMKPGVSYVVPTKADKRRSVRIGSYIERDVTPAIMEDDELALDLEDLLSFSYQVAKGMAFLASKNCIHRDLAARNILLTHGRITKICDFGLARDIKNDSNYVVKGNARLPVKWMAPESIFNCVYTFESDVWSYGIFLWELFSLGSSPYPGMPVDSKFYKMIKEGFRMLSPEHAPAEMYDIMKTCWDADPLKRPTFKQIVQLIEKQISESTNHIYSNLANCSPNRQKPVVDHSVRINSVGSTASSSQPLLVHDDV
Catalogue of molecules with associated IC50
Experimental Endpoint: IC50

>  <Molecule>
O=C(NCc1cccs1)N1CCN(c2ncnc3cc(-c4ccc(F)cc4)sc23)CC1 [P-0709]

>  <Measurement>
10 to 200 µM

$$$$
>  <Molecule>
CS(=O)(=O)Nc1ccc(-c2ncnc3[nH]c(-c4cc(F)ccc4F)cc23)c(F)c1 [P-0339]

>  <Measurement>
1 to 10 µM

$$$$
>  <Molecule>
COc1cccc([C@H](C)NC(=O)N2CCN(c3ncnc4cc(-c5ccc(F)cc5)sc34)C[C@H]2C)c1 [P-0600]

>  <Measurement>
10 to 200 µM

$$$$
>  <Molecule>
Cc1cc2c(-c3ccc(NS(=O)(=O)c4ccc(OC(F)F)cc4)c(F)c3)ncnc2[nH]1 [P-0360]

>  <Measurement>
1 to 10 µM

$$$$
>  <Molecule>
Cc1cc2c(-c3ccc(NS(=O)(=O)c4ccc(OC(C)C)cc4)cc3)ncnc2[nH]1 [P-0311]

>  <Measurement>
10 to 200 µM

$$$$
>  <Molecule>
COc1cc2ncnc(-c3cccc(NS(=O)(=O)C4CC4)c3)c2cc1OC [P-0279]

>  <Measurement>
10 to 200 µM

$$$$
>  <Molecule>
COc1ccc([C@@H](C)NC(=O)N2CCN(c3ncnc4[nH]c(-c5ccc(F)cc5)cc34)C[C@H]2C)cc1 [P-0031]

>  <Measurement>
10 to 200 µM

$$$$
>  <Molecule>
C[C@H](NC(=O)N1CCN(c2ncnc3cc(C4=CC(C)(C)NC(C)(C)C4)sc23)CC1)c1cccc(Cl)c1 [P-0569]

>  <Measurement>
10 to 200 µM

$$$$

Where these numbers come from: patent US10227357B2
